// data source = ChEMBL document CHEMBL4411305

For each of the compounds below, state its Microsomal intrinsic clearance.
Test Description: Intrinsic clearance in human liver microsomes assessed as NADPH-dependent metabolism per mg protein at 1 uM in presence of NADPH by LC-MS/MS analysis
Format: ADME, Microsome
Number in µL/min, nothing else.

Ask: Return reported Microsomal intrinsic clearance; argument: Cc1c(C(=O)Nc2ccc(F)c(C(F)F)c2)sc(N)c1C(N)=O
Result: 5.8

Ask: What do you have for Cc1c(C(=O)Nc2ccc(F)c(C#N)c2)sc(N)c1C(N)=O ?
Result: 2.4

Ask: Now the same for Cc1c(C(=O)Nc2ccc(F)c(F)c2)sc(N)c1C(N)=O
Result: 3.4

Ask: Record: Cc1c(C(=O)Nc2ccc(F)c(Cl)c2)sc(N)c1C(N)=O
Result: 7.6

Ask: Next record, please: Cc1c(C(=O)Nc2ccccc2)sc(N)c1C(N)=O
Result: 5

Ask: Field entry: Cc1cc(NC(=O)c2sc(N)c(C(N)=O)c2C)ccc1F
Result: 14

----------
Test system: Hepatitis B virus
Test Description: Binding affinity to HBV dimeric capsid protein C150 mutant expressed in Escherichia coli BL21 (DE3) at 20 uM by Sypro orange staining based RT-PCR analysis
Active and inactive are the calls of the source. No rule for the calls is given here.
Endpoint Label: Activity

# example entries with known answers
>  <Given Smiles>
Cc1c(C(=O)Nc2ccccc2)sc(N)c1C#N

>  <Activity>
inactive

$$$$
>  <Given Smiles>
Cc1c(C(=O)Nc2ccc(F)c(C(F)(F)F)c2)sc(N)c1C(N)=O

>  <Activity>
Active

$$$$
>  <Given Smiles>
O=C(Nc1ccc(F)c(F)c1)c1cc(S(=O)(=O)NC2CCCC2)ccc1F

>  <Activity>
Active

$$$$
>  <Given Smiles>
Cc1c(C(=O)Nc2ccccc2)sc(N)c1C(=O)NC1CCCC1

>  <Activity>
inactive

$$$$
>  <Given Smiles>
O=C(N/C(C(=O)N1CCCCC1)=C(\Cl)c1ccccc1)c1ccccc1

>  <Activity>
Active

$$$$

Ask: Form entry - test system: Hepatitis B virus; read-out: Activity; compound: Cc1c(C(=O)Nc2ccccc2)sc(NC(=O)c2csc([N+](=O)[O-])c2)c1C(N)=O
Result: Active

----------
Tested on: HepG2
Test Description: Cytotoxicity against human HepG2 cells assessed as reduction in cell viability incubated for 2 days prior to compound washout followed by compound redosing and measured after 2 days by XTT assay
Type: cell-based
Condition Parameters: hepg2, 48 h
Endpoint Label: CC50 (µM)
Give just the number in µM; leave the unit off.

Ask: What does the data say about its CC50? Entry: Cc1c(C(=O)Nc2cc(F)c(F)c(Cl)c2)sc(N)c1C(N)=O
Result: 72

Ask: Then CCOC(=O)c1c(N)sc(C(=O)Nc2ccccc2)c1C ?
Result: 76

Ask: What about this compound? Cc1c(C(=O)Nc2ccc(Cl)c(C(F)(F)F)c2)sc(N)c1C(N)=O
Result: 72

Ask: Same lookup for Cc1cc(NC(=O)c2sc(N)c(C(N)=O)c2C)ccc1Br , please.
Result: 107

----------
Test Description: Half life in Dulbecco's phosphate buffered saline at 1 uM by LC-MS/MS analysis
Assay type: physicochemical
Endpoint Label: half-life at 1 µM

Ask: Name the recorded half-life at 1 µM for Cc1c(C(=O)Nc2ccccc2)sc(N)c1C(N)=O .
Result: > 24 h

----------
System: Hepatitis B virus
Test Description: Binding affinity to HBV dimeric capsid protein C150 mutant expressed in Escherichia coli BL21 (DE3) at 20 uM by Sypro orange staining based RT-PCR analysis
Active and inactive are the calls of the source. How the calls were made is not given here.
Bench note: report the call from 1 (yes) (active), 0 (no) (inactive)

Ask: Hello, I am checking results. What call was entered for COc1ccc(CNC(=O)c2c(N)sc(C(=O)Nc3ccccc3)c2C)cc1 ?
Result: 1 (yes)

Ask: Now give it for Cc1cc(NC(=O)c2sc(N)c(C(N)=O)c2C)ccc1Cl too.
Result: 1 (yes)

Ask: Quick one: Cc1ccc(C(=O)Nc2sc(C(=O)Nc3ccccc3)c(C)c2C(N)=O)s1
Result: 1 (yes)

Ask: Another molecule to check: Cc1c(C(=O)Nc2ccc(Cl)c(C(F)(F)F)c2)sc(N)c1C(N)=O
Result: 1 (yes)

Ask: Try this molecule next: Cc1cc(NC(=O)c2sc(N)c(C(N)=O)c2C)ccc1F
Result: 1 (yes)

Ask: Similarly, Cc1cc(NC(=O)c2c(N)sc(C(=O)Nc3ccccc3)c2C)ccc1F ?
Result: 1 (yes)

Ask: Next record, please: CC(C)Cc1sc(-c2nccs2)nc1C(=O)NCc1ccc(F)cc1
Result: 1 (yes)

Ask: Further, for Cc1c(C(=O)Nc2ccccc2)sc(NC(=O)Cc2ccc(F)c(F)c2)c1C(N)=O ?
Result: 1 (yes)

Ask: Subsequent entry: Cc1c(C(=O)Nc2ccc(F)c(F)c2)sc(N)c1C(=O)Nc1ccc(Cl)cc1
Result: 1 (yes)

Ask: Cc1c(C(=O)Nc2ccccc2)sc(N)c1C(N)=S , same question.
Result: 1 (yes)

Ask: What do you have for Cc1c(C(=O)Nc2ccccc2)sc(N)c1C(=O)Nc1ccc(F)c(F)c1 ?
Result: 1 (yes)

Ask: Another: NC(=O)c1c(N)sc2c1CCCN2C(=O)c1ccccc1
Result: 0 (no)

Ask: Item: Cc1c(C(=O)Nc2ccccc2)sc2[nH]c(CS(=O)(=O)c3ccccc3)nc(=O)c12
Result: 0 (no)

Ask: Request: Cc1c(C(=O)Nc2ccc(F)c(Cl)c2)sc(N)c1C(N)=O
Result: 1 (yes)

Ask: Next up: Cc1c(C(=O)Nc2ccc(F)c(C#N)c2)sc(N)c1C(N)=O
Result: 1 (yes)

Ask: Would you kindly repeat that for Cc1c(C(=O)Nc2ccccc2)sc2[nH]c(-c3ccc(F)c(F)c3)nc(=O)c12 ?
Result: 0 (no)

Ask: Try this molecule next: Cc1c(C(=O)Nc2cc(F)c(F)c(Cl)c2)sc(N)c1C(N)=O
Result: 1 (yes)

Ask: Again, but for Cc1c(C(=O)Nc2ccccc2)sc(N)c1C(=O)NC1CC1
Result: 0 (no)

Ask: Another molecule: Cc1c(C(=O)Nc2ccccc2)sc(N)c1C(=O)Nc1ccccc1
Result: 1 (yes)

Ask: How about CCOC(=O)c1c(N)sc(C(=O)Nc2ccc(F)c(C)c2)c1C ?
Result: 1 (yes)

Ask: Another molecule: Cc1c(C(=O)Nc2ccccc2)sc(N)c1C(=O)NCc1ccc(C(F)(F)F)cc1
Result: 1 (yes)

Ask: Lookup Cc1c(C(=O)Nc2ccccc2)sc(NC(=O)c2nccs2)c1C(N)=O
Result: 1 (yes)

----------
Would you kindly list CC50 for each of these compounds?
System: HepG2
Test Description: Cytotoxicity against human HepG2 cells assessed as reduction in cell viability incubated for 2 days prior to compound washout followed by compound redosing and measured after 2 days by XTT assay
Type: cell-based
Condition Parameters: hepg2, 48 h

Ask: What value of CC50 on HepG2 does Cc1cc(NC(=O)c2sc(N)c(C#N)c2C)ccc1F have?
Result: 96 µM

Ask: Now consider Cc1ccc(CC(=O)Nc2sc(C(=O)Nc3ccccc3)c(C)c2C(N)=O)cc1F and answer again.
Result: > 100 µM

Ask: Try this compound next: CCOC(=O)c1c(N)sc(C(=O)Nc2ccc(F)c(C)c2)c1C
Result: > 100 µM

Ask: Cc1c(C(=O)Nc2ccccc2)sc(NC(=O)c2ccsc2)c1C(N)=O , same question.
Result: > 100 µM

Ask: And Cc1c(C(=O)Nc2ccc(F)c(F)c2)sc(N)c1C(N)=O ?
Result: > 100 µM

Ask: Would you kindly repeat that for Cc1c(C(=O)Nc2ccccc2)sc(N)c1C(=O)Nc1ccccc1 ?
Result: > 100 µM

----------
Test system: HepG2
Test Description: Cytotoxicity against human HepG2 cells assessed as reduction in cell viability incubated for 2 days prior to compound washout followed by compound redosing and measured after 2 days by XTT assay
Assay type: cell-based
Condition Parameters: hepg2, 48 h
Could you please mark rule met for values of CC50 below 40 µM and rule not met for values at or above it?

Ask: Below 40 µM on CC50? Entry Cc1c(C(=O)Nc2ccc(F)c(F)c2)sc(N)c1C(=O)Nc1ccccc1
Result: rule met

Ask: Repeat with Cc1c(C(=O)Nc2ccc(F)c(C#N)c2)sc(N)c1C(N)=O
Result: rule not met

Ask: Try O=C(N/C(C(=O)N1CCCCC1)=C(\Cl)c1ccccc1)c1ccccc1 next.
Result: rule not met

Ask: Then Cc1cc(NC(=O)c2sc(N)c(C(N)=O)c2C)ccc1Cl ?
Result: rule not met

Ask: Another molecule to look at: Cc1c(C(=O)Nc2ccc(F)c(C(F)F)c2)sc(N)c1C(N)=O
Result: rule not met

Ask: Let us now turn to Cc1c(C(=O)Nc2ccc(F)cc2)sc(N)c1C(N)=O
Result: rule not met

Ask: Would you mind doing O=C(Nc1ccc(F)c(F)c1)c1cc(S(=O)(=O)NC2CCCC2)ccc1F as well?
Result: rule met

Ask: Note, next up: Cc1c(C(=O)Nc2ccccc2)sc(NC(=O)c2cc(Cl)cc(Cl)c2)c1C(N)=O
Result: rule not met

Ask: Proceed to Cc1ccc(C(=O)Nc2sc(C(=O)Nc3ccccc3)c(C)c2C(N)=O)s1
Result: rule not met
